Target: Human GLP-1 receptor (Homo sapiens, UniProt P43220)
Construct: expressed in transfected cells
Sequence (P43220 24-463): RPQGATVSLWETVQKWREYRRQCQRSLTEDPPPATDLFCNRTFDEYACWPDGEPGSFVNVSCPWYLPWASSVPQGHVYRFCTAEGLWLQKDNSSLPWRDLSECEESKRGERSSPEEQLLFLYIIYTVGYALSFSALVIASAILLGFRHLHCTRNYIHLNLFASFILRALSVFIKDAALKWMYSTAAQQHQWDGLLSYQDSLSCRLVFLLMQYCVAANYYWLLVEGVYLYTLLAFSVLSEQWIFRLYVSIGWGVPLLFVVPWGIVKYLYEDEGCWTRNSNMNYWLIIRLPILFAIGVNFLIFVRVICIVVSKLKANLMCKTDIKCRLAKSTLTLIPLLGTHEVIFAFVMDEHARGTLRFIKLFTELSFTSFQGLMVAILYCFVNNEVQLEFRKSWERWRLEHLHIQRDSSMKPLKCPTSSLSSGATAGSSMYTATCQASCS
Test: Measurement of GLP-1 receptor agonist activity (cAMP assay)
Format: cell-based
Conditions: cAMP increase in GLP-1 R/CHO-K1 cells; 2 nM human GLP-1 (7-36) = 100%, DMSO only = 0%
pEC50: −log10 of the molar value.
measurement name: pEC50

P: COc1cc(C(=O)O)cc2c1nc(CN1CCc3cc(C(F)(F)F)c(OCc4ccc(Cl)cc4Cl)nc3[C@@H]1C)n2C[C@@H]1CCO1
Q: C[C@H]1c2nc(OCc3ccc(OC(F)F)cc3F)c(C(F)(F)F)cc2CCN1Cc1nc2ccc(C(=O)O)c(F)c2n1C[C@@H]1CCO1
R: C[C@H]1c2nc(OCc3ccc(Cl)cn3)c(C(F)(F)F)cc2CCN1Cc1nc2ccc(C(=O)O)nc2n1C[C@@H]1CCO1
Could you list the above compounds by pEC50, going from the biggest number down? Could you list the labels in the order requested?
P, Q, R
